Listed compounds paired with reported IC50
TGT: p99 AmpC β-lactamase (Enterobacter cloacae)
Construct: expressed as native untagged proteins; made in house; host or cells: E. coli BL21(DE3)
Sequence (P05364 21-381): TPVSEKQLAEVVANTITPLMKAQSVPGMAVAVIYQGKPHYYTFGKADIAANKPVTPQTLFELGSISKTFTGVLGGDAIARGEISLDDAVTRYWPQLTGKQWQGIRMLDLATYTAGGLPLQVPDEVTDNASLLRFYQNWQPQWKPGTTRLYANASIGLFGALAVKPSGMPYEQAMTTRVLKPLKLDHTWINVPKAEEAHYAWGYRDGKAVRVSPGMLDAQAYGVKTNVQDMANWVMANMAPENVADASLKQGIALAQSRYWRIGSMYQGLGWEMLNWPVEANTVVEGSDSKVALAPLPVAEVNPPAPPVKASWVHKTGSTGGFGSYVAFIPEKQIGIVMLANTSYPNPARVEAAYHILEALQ
PROTOCOL NOTES: β-lactamase enzyme inhibition assay (nitrocefin substrate), P99 AmpC
Assay type: biochemical
CONDITION NOTES: nitrocefin 100 μM, 37° C., PBS pH 7.0; read-out: P99 AmpC IC50
QUANTITY KIND: IC50 (nM)

[[record]]
compound = "O=C(Cc1ccc(CNc2ccccn2)cc1)N[C@@H](Cc1cccc(C(=O)O)c1O)B(O)O [Example 57]"
quantity_kind = "IC50"
measured_value = 3

[[record]]
compound = "Cl.NCCNCc1ccc(C(=O)N[C@@H](Cc2cccc(C(=O)O)c2O)B(O)O)cc1 [Example 15, hydrochloride]"
quantity_kind = "IC50"
measured_value = 5

[[record]]
compound = "O=C(Cc1ccc(CN2CCNCC2)cc1)N[C@@H](Cc1cccc(C(=O)O)c1O)B(O)O [Example 37]"
quantity_kind = "IC50"
measured_value = 2

[[record]]
compound = "N=C(N)NCCC[C@H](NCc1ccc(CC(=O)N[C@@H](Cc2cccc(C(=O)O)c2O)B(O)O)cc1)C(=O)O [Example 59]"
quantity_kind = "IC50"
measured_value = 6

[[record]]
compound = "CN(C)Cc1cccc(C(=O)N[C@@H](Cc2cccc(C(=O)O)c2O)B(O)O)c1 [Example 27]"
quantity_kind = "IC50"
measured_value = 1.4


----------
TGT: CTX-M15 β-lactamase (Escherichia coli)
Construct: expressed as native untagged proteins; made in house; host or cells: E. coli BL21(DE3)
Sequence (Q9EXV5 entry or part of it): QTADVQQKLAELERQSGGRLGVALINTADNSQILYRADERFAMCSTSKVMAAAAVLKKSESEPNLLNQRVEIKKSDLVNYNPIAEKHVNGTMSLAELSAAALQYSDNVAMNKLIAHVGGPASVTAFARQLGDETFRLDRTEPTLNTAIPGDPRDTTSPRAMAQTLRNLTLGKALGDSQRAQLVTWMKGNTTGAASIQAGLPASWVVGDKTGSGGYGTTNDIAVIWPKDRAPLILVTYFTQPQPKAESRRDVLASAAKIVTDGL
PROTOCOL NOTES: β-lactamase enzyme inhibition assay (nitrocefin substrate), CTXM-15
Assay type: biochemical
Counter-ions that a name gives are not always drawn.
QUANTITY KIND: IC50 (nM)

[[record]]
compound = "CNCc1ccc(CC(=O)N[C@@H](Cc2cccc(C(=O)O)c2O)B(O)O)cc1"
measured_value = 8

[[record]]
compound = "Cl.NCc1cc(CC(=O)N[C@@H](Cc2cccc(C(=O)O)c2O)B(O)O)ccn1 [Example 63, hydrochloride]"
measured_value = 10

[[record]]
compound = "Br.CC(C)(O/N=C(\\C(=O)N[C@@H](Cc1cccc(C(=O)O)c1O)B(O)O)c1csc(N)n1)C(=O)O [Example 48, hydrobromide]"
measured_value = 12

[[record]]
compound = "Cl.NCc1ccc(C(=O)N[C@@H](Cc2cccc(C(=O)O)c2O)B(O)O)cc1 [Example 2, hydrochloride]"
measured_value = 2

[[record]]
compound = "Cl.Nc1cc(C(=O)N[C@@H](Cc2cccc(C(=O)O)c2O)B(O)O)ccn1"
measured_value = 28

[[record]]
compound = "CCC(=O)C(=O)N[C@@H](Cc1cccc(C(=O)O)c1O)B(O)O"
measured_value = 11

[[record]]
compound = "Cl.Nc1nc(/C(=N/O)C(=O)N[C@@H](Cc2cccc(C(=O)O)c2O)B(O)O)cs1 [Example 49, hydrochloride]"
measured_value = 11

[[record]]
compound = "NCc1cccc(CC(=O)N[C@@H](Cc2cccc(C(=O)O)c2O)B(O)O)c1"
measured_value = 9

[[record]]
compound = "Cl.O=C(N[C@@H](Cc1cccc(C(=O)O)c1O)B(O)O)c1ccc(N2CCNCC2)nc1 [Example 9, hydrochloride]"
measured_value = 83

[[record]]
compound = "O=C(O)CNCc1ccc(CC(=O)N[C@@H](Cc2cccc(C(=O)O)c2O)B(O)O)cc1"
measured_value = 4

[[record]]
compound = "Nc1ccc(CC(=O)N[C@@H](Cc2cccc(C(=O)O)c2O)B(O)O)cn1"
measured_value = 5

[[record]]
compound = "O=C(Cc1ccc(CN2CCNCC2)cc1)N[C@@H](Cc1cccc(C(=O)O)c1O)B(O)O"
measured_value = 7

[[record]]
compound = "CC(=O)NCc1ccc(CC(=O)N[C@@H](Cc2cccc(C(=O)O)c2O)B(O)O)cc1"
measured_value = 2

[[record]]
compound = "Cl.O=C(N[C@@H](Cc1cccc(C(=O)O)c1O)B(O)O)c1ccc(CN2CCCC(C(=O)O)C2)cc1 (some centres unmarked) [Example 12, hydrochloride]"
measured_value = 3

[[record]]
compound = "CNCc1ccc(C(=O)N[C@@H](Cc2cccc(C(=O)O)c2O)B(O)O)cc1.Cl [Example 11, hydrochloride]"
measured_value = 4

[[record]]
compound = "NCCNCc1cccc(C(=O)N[C@@H](Cc2cccc(C(=O)O)c2O)B(O)O)c1"
measured_value = 1

[[record]]
compound = "O=C(Cc1ccc(CNc2ccccn2)cc1)N[C@@H](Cc1cccc(C(=O)O)c1O)B(O)O"
measured_value = 4

[[record]]
compound = "CC(=O)Nc1ccc(C(=O)N[C@@H](Cc2cccc(C(=O)O)c2O)B(O)O)cn1"
measured_value = 3

[[record]]
compound = "C[N+]1(Cc2ccc(CC(=O)N[C@@H](Cc3cccc(C(=O)O)c3O)B(O)O)cc2)CCOCC1 [Example 41, formate]"
measured_value = 2

[[record]]
compound = "CO/N=C(\\C(=O)N[C@@H](Cc1cccc(C(=O)O)c1O)B(O)O)c1csc(NC(=O)CN)n1.Cl [Example 51, hydrochloride]"
measured_value = 40

[[record]]
compound = "CO/N=C(\\C(=O)N[C@@H](Cc1cccc(C(=O)O)c1O)B(O)O)c1csc(NC(=O)[C@@H](N)CCCCN)n1 [Example 52, hydrochloride]"
measured_value = 55

[[record]]
compound = "Cl.O=C(N[C@@H](Cc1cccc(C(=O)O)c1O)B(O)O)c1ccc(CNCCO)cc1 [Example 16, hydrochloride]"
measured_value = 5

[[record]]
compound = "Cl.Nc1ccc(C(=O)N[C@@H](Cc2cccc(C(=O)O)c2O)B(O)O)cn1 [Example 7, formate salt]"
measured_value = 1


----------
TGT: VIM-2 metallo β-lactamase (Pseudomonas aeruginosa, UniProt Q9K2N0)
Construct: made in house
PROTOCOL NOTES: β-lactamase enzyme inhibition assay (nitrocefin substrate), VIM-2
Type: biochemical
CONDITION NOTES: nitrocefin 100 μM, 37° C., PBS pH 7.0; read-out: VIM-2 IC50
Structures can show the parent of a compound that is named as a salt.
QUANTITY KIND: IC50

[[record]]
molecule = "O=C(Cc1ccc(CN2CCCC2)cc1)N[C@@H](Cc1cccc(C(=O)O)c1O)B(O)O"
measured_value = "858 nM"

[[record]]
molecule = "CCNCc1ccc(C(=O)N[C@@H](Cc2cccc(C(=O)O)c2O)B(O)O)cc1.Cl [Example 6, Hydrochloride]"
measured_value = "57 nM"

[[record]]
molecule = "NCc1ccc(/C(=N/O)C(=O)N[C@@H](Cc2cccc(C(=O)O)c2O)B(O)O)cc1 [Example 53, hydrochloride]"
measured_value = "312 nM"

[[record]]
molecule = "Nc1cccc[n+]1Cc1ccc(CC(=O)N[C@@H](Cc2cccc(C(=O)O)c2O)B(O)O)cc1"
measured_value = "> 1000 nM"

[[record]]
molecule = "Cl.Nc1ccc(C(=O)N[C@@H](Cc2cccc(C(=O)O)c2O)B(O)O)cn1 [Example 7, formate salt]"
measured_value = "820 nM"

[[record]]
molecule = "NCCNCc1ccc(CC(=O)N[C@@H](Cc2cccc(C(=O)O)c2O)B(O)O)cc1"
measured_value = "196 nM"

[[record]]
molecule = "Cl.NCCNCc1ccc(C(=O)N[C@@H](Cc2cccc(C(=O)O)c2O)B(O)O)cc1 [Example 15, hydrochloride]"
measured_value = "47 nM"

[[record]]
molecule = "Cl.NCc1cc(CC(=O)N[C@@H](Cc2cccc(C(=O)O)c2O)B(O)O)ccn1 [Example 63, hydrochloride]"
measured_value = "621 nM"

[[record]]
molecule = "CC(=O)Nc1ccc(C(=O)N[C@@H](Cc2cccc(C(=O)O)c2O)B(O)O)cn1"
measured_value = "680 nM"

[[record]]
molecule = "Cl.O=C(N[C@@H](Cc1cccc(C(=O)O)c1O)B(O)O)c1ccc(N2CCNCC2)nc1 [Example 9, hydrochloride]"
measured_value = "242 nM"

[[record]]
molecule = "O=C(Cc1ccc(CNCCO)cc1)N[C@@H](Cc1cccc(C(=O)O)c1O)B(O)O"
measured_value = "580 nM"

[[record]]
molecule = "Br.CC(C)(O/N=C(\\C(=O)N[C@@H](Cc1cccc(C(=O)O)c1O)B(O)O)c1csc(N)n1)C(=O)O [Example 48, hydrobromide]"
measured_value = "> 1000 nM"

[[record]]
molecule = "NCc1cccc(CC(=O)N[C@@H](Cc2cccc(C(=O)O)c2O)B(O)O)c1"
measured_value = "882 nM"

[[record]]
molecule = "Cl.O=C(N[C@@H](Cc1cccc(C(=O)O)c1O)B(O)O)c1ccc(CN2CCCC(C(=O)O)C2)cc1 (stereo partly shown) [Example 12, hydrochloride]"
measured_value = "930 nM"

[[record]]
molecule = "NCc1cccc(C(=O)N[C@@H](Cc2cccc(C(=O)O)c2O)B(O)O)c1 [Example 1, hydrochloride]"
measured_value = "152 nM"

[[record]]
molecule = "NCc1ccc(CC(=O)N[C@@H](Cc2cccc(C(=O)O)c2O)B(O)O)cc1"
measured_value = "271 nM"

[[record]]
molecule = "CN(C)Cc1ccc(CC(=O)N[C@@H](Cc2cccc(C(=O)O)c2O)B(O)O)cc1"
measured_value = "593 nM"

[[record]]
molecule = "CN(C)Cc1ccc(C(=O)N[C@@H](Cc2cccc(C(=O)O)c2O)B(O)O)cc1 [Example 4, formate salt]"
measured_value = "> 1000 nM"

[[record]]
molecule = "N=C(N)NCc1cc(CC(=O)N[C@@H](Cc2cccc(C(=O)O)c2O)B(O)O)ccn1 [Example 64, formate]"
measured_value = "548 nM"

[[record]]
molecule = "Cc1cc(NCc2cccc(C(=O)N[C@@H](Cc3cccc(C(=O)O)c3O)B(O)O)c2)no1"
measured_value = "304 nM"

[[record]]
molecule = "CC/C(=N/O)C(=O)N[C@@H](Cc1cccc(C(=O)O)c1O)B(O)O"
measured_value = "> 1000 nM"

[[record]]
molecule = "CNCc1ccc(C(=O)N[C@@H](Cc2cccc(C(=O)O)c2O)B(O)O)cc1.Cl [Example 11, hydrochloride]"
measured_value = "57 nM"

[[record]]
molecule = "O=C(N[C@@H](Cc1cccc(C(=O)O)c1O)B(O)O)c1ccc(CN2CCNCC2)cc1 [Example 5, Hydrochloride]"
measured_value = "510 nM"

[[record]]
molecule = "CCC(=O)C(=O)N[C@@H](Cc1cccc(C(=O)O)c1O)B(O)O"
measured_value = "> 1000 nM"

[[record]]
molecule = "O=C(Cc1ccc(CN2CCNCC2)cc1)N[C@@H](Cc1cccc(C(=O)O)c1O)B(O)O"
measured_value = "785 nM"

